Target: PI3K γ (Homo sapiens)
Sequence (P48736 whole entry): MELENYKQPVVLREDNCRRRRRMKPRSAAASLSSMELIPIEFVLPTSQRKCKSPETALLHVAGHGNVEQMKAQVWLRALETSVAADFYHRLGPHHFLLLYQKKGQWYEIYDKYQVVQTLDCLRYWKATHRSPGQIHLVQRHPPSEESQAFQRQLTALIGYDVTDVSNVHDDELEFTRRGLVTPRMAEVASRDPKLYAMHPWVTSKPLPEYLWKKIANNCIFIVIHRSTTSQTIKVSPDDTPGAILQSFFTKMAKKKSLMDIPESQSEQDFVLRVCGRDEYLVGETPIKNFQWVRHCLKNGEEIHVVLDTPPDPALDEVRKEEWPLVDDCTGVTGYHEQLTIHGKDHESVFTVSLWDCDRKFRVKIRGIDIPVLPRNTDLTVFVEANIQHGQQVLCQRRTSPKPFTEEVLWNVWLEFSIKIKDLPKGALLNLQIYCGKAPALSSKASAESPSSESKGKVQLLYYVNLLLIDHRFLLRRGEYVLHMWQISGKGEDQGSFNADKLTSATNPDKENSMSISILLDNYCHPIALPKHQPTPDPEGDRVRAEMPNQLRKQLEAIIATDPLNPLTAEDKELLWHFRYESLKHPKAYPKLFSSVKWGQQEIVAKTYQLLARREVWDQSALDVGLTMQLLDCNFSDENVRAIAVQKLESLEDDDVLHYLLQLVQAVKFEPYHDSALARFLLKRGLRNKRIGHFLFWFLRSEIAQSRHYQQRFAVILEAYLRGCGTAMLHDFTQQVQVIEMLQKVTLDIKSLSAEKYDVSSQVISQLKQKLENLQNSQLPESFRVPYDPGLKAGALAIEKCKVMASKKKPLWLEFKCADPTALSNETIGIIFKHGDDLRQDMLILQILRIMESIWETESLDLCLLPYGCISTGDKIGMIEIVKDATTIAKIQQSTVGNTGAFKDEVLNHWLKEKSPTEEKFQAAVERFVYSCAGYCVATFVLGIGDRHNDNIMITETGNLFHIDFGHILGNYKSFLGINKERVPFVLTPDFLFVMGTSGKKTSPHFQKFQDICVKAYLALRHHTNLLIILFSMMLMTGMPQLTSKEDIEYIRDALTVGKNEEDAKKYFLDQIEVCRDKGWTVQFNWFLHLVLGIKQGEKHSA
Test: PI3 kinase phosphorylation assay (Biological Method 1), Ki γ
Format: biochemical
Settings: Table 1, compounds of formula X
value type: Ki (µM)

CC(C)n1nnc(CCNC(=O)Nc2cn3cc(-c4cncc(Cl)c4)ccc3n2)n1 [drawing 37]	0.05
Cc1ccccc1-c1cncc(-c2ccc3nc(NC(=O)NCCc4nnn(C(C)C)n4)cn3c2)c1 [drawing 91]	1.12

I = CC(C)n1nnc(CCNC(=O)Nc2cn3cc(-c4cncc(S(C)(=O)=O)c4)ccc3n2)n1
II = CCn1nnc(CCNC(=O)Nc2cn3cc(-c4cnn(C)c4)ccc3n2)n1 [drawing 93]
Between these two entries, I and II , state which has the higher Ki. # respond with the chosen item's label
II
(II: 0.456 µM, I: 0.014 µM)

1 = CC(C)n1nnc(CCNC(=O)Nc2cn3cc(-c4cncc(-c5ccccc5)c4)ccc3n2)n1 [drawing 45]
2 = COc1cccc(-c2ccc3nc(NC(=O)NCCc4nnn(C(C)C)n4)cn3c2)c1 [drawing 71]
3 = CCc1nnn(CCNC(=O)Nc2cn3cc(-c4cncc(C(F)(F)F)c4)ccc3n2)n1 [drawing 63]
Rank the items in ascending order with respect to Ki. Please reply with the labels ordered as requested. Many thanks.
3, 1, 2

P = CC(C)n1nnc(CCNC(=O)Nc2cn3cc(-c4ccncc4)ccc3n2)n1 [drawing 17]
Q = COc1ccc(-c2ccc3nc(NC(=O)NCCc4nnn(C(C)C)n4)cn3c2)cn1 [drawing 51]
R = COc1ccc(-c2ccc3nc(NC(=O)NCCc4nnn(CCF)n4)cn3c2)cn1 [drawing 53]
S = CC(C)(C)NC(=O)CCNC(=O)Nc1cn2cc(-c3cncc(-c4ccccc4)c3)ccc2n1 [drawing 43]
T = Cn1nnc(CCNC(=O)Nc2cn3cc(-c4cncc(C(F)(F)F)c4)ccc3n2)n1 [drawing 89]
Rank the items in ascending order with respect to Ki. Please reply with the labels ordered as requested. Many thanks.
T, R, P, S, Q
